Kindly state Plasma level of non-ester compound for each of the entries shown.
- Test Settings: mouse, in vivo, po, 100 mg/kg, 120 min
Answers are plain numbers, in ng/mL.

[
  {
    "Compound": "CCOC(=O)OC(C)OC(=O)C1=C(CSc2nnnn2CCN(C)C)CS[C@@H]2[C@H](NC(=O)Cc3csc(N)n3)C(=O)N12 (stereo partly drawn) [Compound A, reference compound]",
    "Val": 700
  },
  {
    "Compound": "CCC(CC)COC(=O)OC(C)OC(=O)C1=C(CSc2nnnn2CCN(C)C)CS[C@@H]2[C@H](NC(=O)Cc3csc(N)n3)C(=O)N12 (stereo partly drawn) [Example 4]",
    "Val": 220
  },
  {
    "Compound": "CC(C)CCOC(=O)OC(C)OC(=O)C1=C(CSc2nnnn2CCN(C)C)CS[C@@H]2[C@H](NC(=O)Cc3csc(N)n3)C(=O)N12 (stereo partly drawn) [Example 2]",
    "Val": 1680
  },
  {
    "Compound": "CCCC(C)COC(=O)OC(C)OC(=O)C1=C(CSc2nnnn2CCN(C)C)CS[C@@H]2[C@H](NC(=O)Cc3csc(N)n3)C(=O)N12 (stereo partly drawn) [Example 6]",
    "Val": 2860
  },
  {
    "Compound": "CC(OC(=O)OCC(C)(C)C)OC(=O)C1=C(CSc2nnnn2CCN(C)C)CS[C@@H]2[C@H](NC(=O)Cc3csc(N)n3)C(=O)N12 (stereo partly drawn) [Example 7]",
    "Val": 1860
  }
]

Let us move to another entry and its Plasma level of non-ester compound.
Data point: CCCC(C)OC(=O)OC(C)OC(=O)C1=C(CSc2nnnn2CCN(C)C)CS[C@@H]2[C@H](NC(=O)Cc3csc(N)n3)C(=O)N12 (stereo partly drawn) [Example 8] ; Plasma level of non-ester compound = 860

FYI, the data here is from patent US4755598A.
